pIC50 values for the molecules below.
System: Wnt signaling
Experiment: CellSensor LEF/TCF-bla SW480 cell-based assay (Wnt signaling inhibition)
Parameters: species or system human
Settings: LEF/TCF-bla SW480 cells, 20 hours
The scale used: pIC50 is minus the common logarithm of the concentration in molar units.

C=C(CC)C(=O)c1ccc(OCC(=O)Nc2nc3ccccc3s2)c(Cl)c1Cl : 5.31
C=C(CC)C(=O)c1ccc(OCC(=O)Nc2ccc3c(c2)C(=O)c2ccccc2C3=O)c(Cl)c1Cl : 5.53

Moving on to the next molecule.
Reported pIC50, molecule C=C(CC)C(=O)c1ccc(OCC(=O)Nc2ccc(Cc3ccc(N4C(=O)C5C6C=CC(C6)C5C4=O)cc3)cc2)c(Cl)c1Cl (stereo not shown) : ____
5.53

====

Test system: Wnt signaling
Test: CellSensor LEF/TCF-bla SW480 cell-based assay (Wnt signaling inhibition)
Design: species or system human
Conditions: LEF/TCF-bla SW480 cells, 20 hours
ASSAY ENDPOINT: IC50 (µM)
// note: answer is a bare numeric in µM

Examples with answers:
C=C(CC)C(=O)c1ccc(OCC(=O)Nc2ccc(C#N)cc2)c(Cl)c1Cl [Compound 8] : 6.84
C=C(CC)C(=O)c1ccc(OCC(=O)Nc2ccc(C(N)=O)cc2)c(Cl)c1Cl [Compound 4] : 4.76

Reported IC50, molecule C=C(CC)C(=O)c1ccc(OCC(=O)NCCc2c[nH]c3ccccc23)c(Cl)c1Cl [Compound 20] : ____
10.7
